Kindly supply the reported AUC(0-inf) values for the records listed here.
- Protocol Text: AUC (0 to infinity) in Sprague-Dawley rat at 1 mg/kg, iv by LC-MS/MS analysis
- Type: ADME, organism-based
- Set-up: dose 1 mg/kg, time infinity, route intravenous
- Assay Context: in vivo
Give your result in µM·h as a bare value.

Look up AUC(0-inf) for this molecule: `CCN1CCN(c2ccc(/C(=C(/CCCO)c3ccccc3)c3ccc(C)cc3)cc2)CC1.Cl.Cl` 0.6

Please answer likewise for `Cc1ccc(/C(=C(\CCCO)c2ccccc2)c2ccc(N3CCN(C)CC3)cc2)cc1.Cl.Cl` 0.29

Same read-out for `CC(C)N1CCN(c2ccc(/C(=C(/CCCO)c3ccccc3)c3cccc(O)c3)cc2)CC1.Cl.Cl` ? 1

Same question for `Cc1ccc(/C(=C(\CCCO)c2ccccc2)c2ccc(N3CCN(C(C)C)CC3)cc2)cc1.Cl.Cl` please. 0.64
